System: RXF 393
Assay: NCI tumour cell line growth inhibition, 48 h
Active and inactive are the calls of the source. No stated cut-off is given here; in the data, active = GI50 up to about 1.1 µM and inactive = higher.
Observation type: GI50

Please review the following examples before continuing.
| Compound | GI50 |
| --- | --- |
| C[N+]1(C)[C@@H]2CC[C@H]1C[C@@H](OC(=O)C(CO)c1ccccc1)C2 (some centres undefined) [ATROPINE METHYLBROMIDE] | > 100 µM (inactive) |
| Cc1nc2ccc(Br)cc2c(=O)n1-c1ccc(N)cc1 | 28.1 µM (inactive) |
| NC(=S)N/N=C(/C(=O)Nc1nc2ccc([N+](=O)[O-])cc2s1)C1C(=O)NC(=S)NC1=O | 48.6 µM (inactive) |
| CC(=O)N(CC(=O)C(=O)NNc1ccoc1)c1ccc(Cl)cc1 | > 100 µM (inactive) |
| CC12CC3CC/C(=N\O)C(C1)C3(N1CCOCC1)C/C2=N/O (centres undefined) | > 100 µM (inactive) |
| CCc1ccc(CCN2CCCCC2)nc1 | > 100 µM (inactive) |
| Cc1cc2c(cc1C)[n+]([O-])c(NCCCN(C)C)c(C#N)[n+]2[O-] | > 100 µM (inactive) |
| COc1ccc2c(c1)CCN1CCc3cc(OC)c(OC)cc3CC21 (centres undefined) | 69 µM (inactive) |

With those in mind, consider the next compound.
// Input: c1ccc(CN2CCC(Nc3ccccc3)(c3nnnn3Cc3ccccc3)CC2)cc1 . Output its GI50 only.
27.4 µM (inactive)
